# System: GM16513 cells
# Format: cell-based
# measurement setup: 10 µM, 3 days, PI positive cells (dead cells)
Where a name gives a salt, the structure may show the parent alone.
assay metric: % PI+ cells (%)
Answers are plain numbers, in %.

Illustrative cases are given below, each with its answer.
INSERT INTO results (compound, observed_measurement) VALUES
  ('COc1ccc(/C=C/C(=O)NO)c(-c2ccc(-c3ccccc3)cc2)c1', 14),
  ('O=C(CCCCCCC(=O)Nc1ccccc1)NO', 9),
  ('Nc1ccccc1NC(=O)c1ccc(CNc2nccc(-c3cccnc3)n2)cc1', 9);

For every listed record, write down its % PI+ cells.
1. Nc1cc(F)ccc1NC(=O)/C=C/c1cnn(C/C=C/c2ccccc2)c1
2. O=C(CCCCCCC(=O)Nc1ccc([C@H]2O[C@@H](CSc3nc(-c4ccccc4)c(-c4ccccc4)o3)C[C@@H](c3ccc(CO)cc3)O2)cc1)NO
3. CC(=O)N[C@@H](CCCCN)C(=O)Nc1ccc2c(C)cc(=O)oc2c1
4. CCN(CC)Cc1ccc2cc(COC(=O)Nc3ccc(C(=O)NO)cc3)ccc2c1 [Givinostat (hydrochloride monohydrate), Givinostat]
5. Nc1ccccc1NC(=O)c1ccc(CNC(=O)OCc2cccnc2)cc1
6. O=C(NO)c1ccc(CN2CCCc3cc(Cl)ccc32)cc1

[3, 4, 1, 29, 7, 5]

###

# Test system: PEX405 cells
# Assay type: cell-based
# measurement setup: 10 µM, 3 days, PI positive cells (dead cells)
Assign class by % PI+ cells: not lower than 1% means condition met; lower than 1% means condition not met.

Field: example entries. Status: answers known.
INSERT INTO assay_data (compound, category_label) VALUES
  ('O=C(NO)c1cccc2ccccc12 [1-Naphthohydroxamic acid]', 'condition not met'),
  ('Cl.O=C(NO)c1ccc(Cn2cc(-c3ccc(CN4CCCC4)cc3)nn2)cc1', 'condition met'),
  ('O=C(NO)c1cnc(N2C[C@@H]3[C@H](C2)[C@H]3NCc2ccc3cc(F)ccc3n2)nc1', 'condition met'),
  ('O=C(CCCCCN1C(=O)c2cccc3cccc(c23)C1=O)NO', 'condition met');

Exam item: decide whether the reported % PI+ cells for COc1cccc2c1c(O)c(C(=O)N(C)c1ccc(C(F)(F)F)cc1)c(=O)n2C is at least 1%.
condition not met

Likewise for Cn1cc(-c2ccc(S(=O)(=O)n3ccc(/C=C/C(=O)Nc4ccccc4N)c3)cc2)cn1 ?
condition met

###

# System: GM16513 cells
# protocol description: Catalase import immunofluorescence, high-content screening (% importing cells)
# Format: cell-based, human
# measurement setup: GM16513 cells, 10 µM, 3 days
Please provide measured % Importing cells for the entries that follow.
One number for each entry, in %.

INSERT INTO measurements (molecule, observed_measurement) VALUES
  ('CCN1CCN(C(c2cccnc2)c2cc(Cl)c3cccnc3c2O)CC1 (stereo not drawn)', 30),
  ('Nc1ccccc1NC(=O)c1cnccn1', 30);

As a next step, examine the molecule that follows.
Value lookup for % Importing cells; key = CCCCNNC(=O)c1ccc(-c2cccc(F)c2F)cc1
30

###

# System: GM16513 cells
# protocol description: Catalase import immunofluorescence, high-content screening (% importing cells)
# Assay type: cell-based, human
# measurement setup: GM16513 cells, 1.3 µM, 3 days
Could you please mark criterion met for values of % Importing cells below 20% and criterion not met for values at or above it?

Field: example entries. Status: answers known.
INSERT INTO measurements (compound, category_label) VALUES
  ('Nc1ccccc1NC(=O)CCCCCCC(=O)Nc1ccccc1', 'criterion not met'),
  ('CCOC(=O)c1cnc(NC2(c3ccccc3)CC2)nc1 [CG347B]', 'criterion not met'),
  ('O=C(/C=C/c1ccc(CN(CCO)CCc2c[nH]c3ccccc23)cc1)NO', 'criterion not met'),
  ('C#Cc1cccc(Nc2ncnc3cc(OC)c(OCCCCCCC(=O)NO)cc23)c1', 'criterion not met'),
  ('COc1ccc(Cn2ccc3ccc(C(=O)NO)cc32)cc1', 'criterion met');

Item O=C(/C=C/c1cccc(S(=O)(=O)Nc2ccccc2)c1)NO : % Importing cells beneath 20%, strictly?
criterion not met

Likewise for CC(=O)Nc1ccc(C(=O)Nc2cc(-c3cccs3)ccc2N)cc1 ?
criterion not met

Likewise for Cn1cc(-c2ccc(S(=O)(=O)n3ccc(/C=C/C(=O)Nc4ccccc4N)c3)cc2)cn1 ?
criterion not met
